The origin of these recorded values is ChEMBL document CHEMBL6087437.

- assay: Tmax in female C57BL/6J mouse at 50 mg/kg, ip
- Format: ADME, organism-based
- experimental-conditions: in vivo
Measured Tmax, listed per entry for reference.
measured-property: Tmax (min)

{"smiles-entry": "O=C(Nc1ccc(N2CCC3(CCC3)CC2)c(C(F)(F)F)c1)c1ccc(CN2C[C@@H]3C[C@H]2CO3)nc1", "numeric-result": 60}
{"smiles-entry": "O=C(Nc1ccc(N2CCC3(CCC3)CC2)c(C(F)(F)F)c1)c1ccc(C(=O)N2C[C@@H]3C[C@H]2CO3)nc1", "numeric-result": 42}

----------
Measured AUC, listed per entry for reference.
- assay: AUC in female C57BL/6J mouse at 50 mg/kg, ip
- Assay type: ADME, organism-based
- experimental-conditions: in vivo

{"smiles-entry": "O=C(Nc1ccc(N2CCC3(CCC3)CC2)c(C(F)(F)F)c1)c1ccc(CN2C[C@@H]3C[C@H]2CO3)nc1", "AUC (ng·h/mL)": 34400}
{"smiles-entry": "O=C(Nc1ccc(N2CCC3(CCC3)CC2)c(C(F)(F)F)c1)c1ccc(C(=O)N2C[C@@H]3C[C@H]2CO3)nc1", "AUC (ng·h/mL)": 57800}

----------
- assay: Metabolic stability in human liver microsomes assessed as parent compound remaining measured after 60 mins in presence of NADPH by LC-MS/MS analysis
- Assay type: ADME, Microsome
- experimental-conditions: read-out: Stability
Measured remaining at 1 h, listed per entry for reference.

{"smiles-entry": "O=C(Nc1ccc(N2CCC3(CCC3)CC2)c(C(F)(F)F)c1)c1ccc(CN2C[C@@H]3C[C@H]2CO3)nc1", "remaining at 1 h, %": 60}
{"smiles-entry": "O=C(Nc1ccc(N2CCC3(CCC3)CC2)c(C(F)(F)F)c1)c1ccc(C(=O)N2C[C@@H]3C[C@H]2CO3)nc1", "remaining at 1 h, %": 83.6}

----------
Measured Cmax, listed per entry for reference.
- assay: Cmax in female C57BL/6J mouse at 25 mg/kg, ip
- Format: ADME, organism-based
- experimental-conditions: in vivo
measured-property: Cmax

{"smiles-entry": "O=C(Nc1ccc(N2CCC3(CCC3)CC2)c(C(F)(F)F)c1)c1ccc(C(=O)N2C[C@@H]3C[C@H]2CO3)nc1", "result": "5370 ng/mL"}
{"smiles-entry": "O=C(Nc1ccc(N2CCC3(CCC3)CC2)c(C(F)(F)F)c1)c1ccc(CN2C[C@@H]3C[C@H]2CO3)nc1", "result": "2170 ng/mL"}

----------
Measured AUC, listed per entry for reference.
- assay: AUC in female C57BL/6J mouse at 25 mg/kg, ip
- Format: ADME, organism-based
- experimental-conditions: in vivo

{"smiles-entry": "O=C(Nc1ccc(N2CCC3(CCC3)CC2)c(C(F)(F)F)c1)c1ccc(CN2C[C@@H]3C[C@H]2CO3)nc1", "AUC (ng·h/mL)": 14300}
{"smiles-entry": "O=C(Nc1ccc(N2CCC3(CCC3)CC2)c(C(F)(F)F)c1)c1ccc(C(=O)N2C[C@@H]3C[C@H]2CO3)nc1", "AUC (ng·h/mL)": 20700}

----------
- assay: Selectivity index, ratio of CC50 for human A549 cells to EC50 for pseudotyped Ebola virus expressing glycoprotein infected in human A549 cells
- Assay type: toxicity, cell-based
- experimental-conditions: read-out: Ratio CC50/EC50

{"molecule": "O=C(Nc1csc(N2CCOCC2)n1)c1ccc(CN2CCOCC2)cc1", "value-modifier": ">", "selectivity ratio": 1}
{"molecule": "O=C(Nc1ccc(C23CC4CC(CC(C4)C2)C3)cc1)c1ccc(CN2CCOCC2)cc1", "value-modifier": "=", "selectivity ratio": 495}
{"molecule": "CC1CCN(c2ccc(N(C)C(=O)c3ccc(CN4CCOCC4)cc3)cc2C(F)(F)F)CC1", "value-modifier": "=", "selectivity ratio": 33}
{"molecule": "O=C(Nc1ccc(N2CCOCC2)c(C(F)(F)F)c1)c1ccc(CN2CCOCC2)cc1", "value-modifier": "=", "selectivity ratio": 69}
{"molecule": "CC(C)(C)c1ccc(NC(=O)c2ccc(CN3CCOCC3)cc2)c(C(C)(C)C)c1", "value-modifier": "=", "selectivity ratio": 30}
{"molecule": "O=C(Nc1ccc(N2CCC3(CCC3)CC2)c(C(F)(F)F)c1)c1ccc(CN2CCOCC2)cc1", "value-modifier": "=", "selectivity ratio": 209}
{"molecule": "CC1CCN(c2ccc(NC(=O)c3ccc(CN4CCOCC4)nc3)cc2C(F)(F)F)CC1", "value-modifier": "=", "selectivity ratio": 138}
{"molecule": "O=C(Nc1ccc(C(F)(F)F)c(Cl)c1)c1ccc(CN2CCOCC2)cc1", "value-modifier": "=", "selectivity ratio": 1}
{"molecule": "O=C(Nc1ccc(C23CC4CC(CC(C4)C2)C3)cc1)c1ccc(CN2C[C@@H]3C[C@H]2CO3)cc1", "value-modifier": "=", "selectivity ratio": 77}
{"molecule": "CC1CCCN(c2ccc(NC(=O)c3ccc(CN4CCOCC4)cc3)cc2C(F)(F)F)C1 (centres undefined)", "value-modifier": "=", "selectivity ratio": 142}
{"molecule": "CC1CCN(c2ccc(NC(=O)Nc3ccc(CN4CCOCC4)cc3)cc2C(F)(F)F)CC1", "value-modifier": "=", "selectivity ratio": 7}
{"molecule": "O=C(Nc1ccc(N2CCC2)c(C(F)(F)F)c1)c1ccc(CN2CCOCC2)cc1", "value-modifier": "=", "selectivity ratio": 6}
{"molecule": "O=C(Nc1ccc(N2CCC3(CCC3)CC2)c(C(F)(F)F)c1)c1ccc(C(=O)N2C[C@H]3C[C@@H]2CO3)nc1", "value-modifier": "=", "selectivity ratio": 201}
{"molecule": "CC1(C)CCCN(c2ccc(NC(=O)c3ccc(CN4CCOCC4)cc3)cc2C(F)(F)F)C1", "value-modifier": "=", "selectivity ratio": 107}
{"molecule": "CC1CCN(c2ccc(NC(=O)c3ccc(CN4CCOCC4)cc3)cc2C(F)(F)F)CC1", "value-modifier": "=", "selectivity ratio": 129}
{"molecule": "O=C(Nc1ccc(C23CC4CC(CC(C4)C2)C3)cc1)c1ccc(CN2C[C@@H]3C[C@H]2CO3)nc1", "value-modifier": "=", "selectivity ratio": 258}
{"molecule": "CC(C)(C)C1CCN(c2ccc(NC(=O)c3ccc(CN4CCOCC4)cc3)cc2C(F)(F)F)CC1", "value-modifier": "=", "selectivity ratio": 13}
{"molecule": "CN1CCN(c2ccc(NC(=O)c3ccc(CN4CCOCC4)cc3)cc2C(F)(F)F)CC1", "value-modifier": "=", "selectivity ratio": 37}
{"molecule": "CC(C)C1CCN(c2ccc(NC(=O)c3ccc(CN4CCOCC4)cc3)cc2C(F)(F)F)CC1", "value-modifier": "=", "selectivity ratio": 28}
